Source: PubChem BioAssay (NCI)

Test system: COLO 205 colon
Assay: NCI tumour cell line growth inhibition, 48 h
What TGI was measured for each of the following?
Could you give me the number in µM? Just the number is fine.

Request - read-out TGI | tested on COLO 205 colon | compound "Clc1c(Cl)c2c(Cl)c(Cl)c1C[P+](c1ccccc1)(c1ccccc1)CC[P+](c1ccccc1)(c1ccccc1)Cc1c(Cl)c(Cl)c(c(Cl)c1Cl)C[P+](c1ccccc1)(c1ccccc1)CC[P+](c1ccccc1)(c1ccccc1)C2" 2.89

Request - read-out TGI | tested on COLO 205 colon | compound O=C(c1cccnc1)N1N=C(c2ccc(Cl)cc2)CC1(O)c1cc(F)c(Cl)cc1Cl (centres undefined) 28.7

---

Test system: HCT-116 colon
Test: NCI tumour cell line growth inhibition, 48 h
What GI50 was measured for each of the following?

What does the data say about its GI50? Entry: "Cc1[nH]c(=O)[nH]c(=O)c1CO" > 100 µM

What does the data say about its GI50? Entry: "CCCCCCCC[N+](C)(CCCCCCCC)CCCCCCCC" 0.272 µM

What does the data say about its GI50? Entry: COC(=O)C1=C(C(=O)OC)C23C=C(C)C1C2=C(C)C1(CC1)[C@@](C)(O)C3=O (stereo not given in full) 0.37 µM

What does the data say about its GI50? Entry: "COc1cc(-n2cc(-c3ccc(Cl)cc3)[nH]c2=O)cc(OC)c1OC" 35.4 µM

What does the data say about its GI50? Entry: "C=C1C(=O)O[C@H]2[C@H]1CC/C(COC(=O)NCc1c[nH]c3ccc(Cl)cc13)=C\CC[C@@]1(C)O[C@@H]21" 1.27 µM

---

Test system: NCI-H23 lung
Assay: NCI tumour cell line growth inhibition, 48 h
recorded_endpoint: TGI

What does the data say about its TGI? Entry: CC(=O)O[C@H]1C(=O)[C@@]2(C)C(C(OC(=O)c3ccccc3)[C@]3(O)CC(OC(=O)C(O)C(NC(=O)c4ccc(C)cc4)c4ccccc4)C(C)=C1C3(C)C)[C@]1(OC(C)=O)CO[C@@H]1C[C@@H]2O (stereo partly specified) > 25 µM

What does the data say about its TGI? Entry: "O=C1CCC2(CC1)SCCCS2" > 100 µM

What does the data say about its TGI? Entry: O=C(c1cccnc1)N1N=C(c2ccc(Cl)cc2)CC1(O)c1cc(F)c(Cl)cc1Cl (stereo unspecified) > 100 µM

What does the data say about its TGI? Entry: "COc1cc(-n2cc(-c3ccc(Cl)cc3)[nH]c2=O)cc(OC)c1OC" > 100 µM

What does the data say about its TGI? Entry: "COc1cc2c3c(n(CCCNCCCNCCCn4c5c(c6ccccc6c4=O)C(=O)c4ccccc4-5)c(=O)c2cc1OC)-c1cc2c(cc1C3=O)OCO2" 0.0826 µM

What does the data say about its TGI? Entry: "COc1ccc([N+](=O)[O-])c(S(=O)(=O)c2ccc(Cl)cc2)n1" 29.2 µM

What does the data say about its TGI? Entry: "CN(C)CCCc1c[nH]c2ccccc12" > 100 µM

What does the data say about its TGI? Entry: "CN(CCCCN(C)CCc1ccc(Cl)c(Cl)c1)CCCCN1CCCC1" 3.41 µM

What does the data say about its TGI? Entry: "CN(C)c1nc(-c2ccccc2)c(C(=O)c2c[nH]c3ccccc23)s1" > 100 µM

What does the data say about its TGI? Entry: "CC(=O)N=c1ccc2nc3c(cc(N)c4ccccc43)oc-2c1" 4.25 µM

What does the data say about its TGI? Entry: "CCOP(=O)(OCC)/C(C#N)=C/c1cccn1CC(C)C" > 100 µM
